procedure.details: ATG_E_Box_CIS: Attagene CIS-FACTORIAL HepG2 Assay for human Enhancer Box (E-box) (AID 2282936)
assay.setup: HepG2 E-box cis-reporter transcription, actives raise or lower the signal
The source made the active and inactive calls. The calls were made as follows: active = hit-call score of the fitted dose curve at least 0.9, where 1 is the maximum; inactive = score below 0.9.
// allowed return values: active, inactive

- compound: "BrCC(Br)c1ccccc1 (configuration not stated)"
  label.class: "inactive"
- compound: "O=C(Cc1ccccc1)OCCc1ccccc1"
  label.class: "inactive"
- compound: "CN(C1CCCCC1)C1CCCCC1"
  label.class: "inactive"
- compound: "CC(F)(F)CC(F)(F)F"
  label.class: "inactive"
- compound: "O=C=Nc1ccc(Cl)cc1"
  label.class: "inactive"
- compound: "Nc1cccnc1"
  label.class: "inactive"
- compound: "CC(C)C(C)(N)C#N (configuration not stated)"
  label.class: "inactive"
- compound: "CC(O)(CS(=O)(=O)c1ccc(F)cc1)C(=O)Nc1ccc(C#N)c(C(F)(F)F)c1 (configuration not stated)"
  label.class: "inactive"
- compound: "Oc1cccc(-c2ccccc2)c1"
  label.class: "inactive"
- compound: "Clc1cccc(Cl)c1Cl"
  label.class: "inactive"

Q: Per the assay record, what outcome was assigned to "O=c1[nH]c(=O)n(Cl)c(=O)n1Cl" ?
Ans: inactive

Q: Per the assay record, what outcome was assigned to "O=c1nc(O)n(Cl)c(=O)n1Cl" ?
Ans: inactive

* * *

Read-out: Thrombomodulin, THBD (gene 7056)
procedure.details: BSK_CASM3C_Thrombomodulin: BioMAP Diversity Plus: CASM3C Assay for Thrombomodulin Biomarker Activity (AID 2283051);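 also: thrombomodulin protein level measured by ELISA 24 h after dosing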
assay.setup: primary human coronary artery smooth muscle cells; actives raise or lower the signal
Activity calls are given as the source filed them. The calls were made as follows: active = hit-call score of the fitted dose curve at least 0.9, where 1 is the maximum; inactive = score below 0.9.
// allowed return values: yes (1) (active), no (0) (inactive)

Consider the following illustrative entries.
- molecule: "Oc1c(Cl)cc(Cl)cc1Cl"
  label.class: "no (0)"
- molecule: "O=C(N[C@H]1CN2CCC1CC2)c1ccc2c(c1)OCCO2"
  label.class: "no (0)"
- molecule: "Cc1ccc(OP(=O)(Oc2ccc(C)cc2C)Oc2ccc(C)cc2C)c(C)c1"
  label.class: "no (0)"
- molecule: "Cc1cccc(OP(=O)(Oc2cccc(C)c2)Oc2cccc(C)c2)c1"
  label.class: "no (0)"
- molecule: "O=C(CCl)NCO"
  label.class: "no (0)"

Q: Per the assay record, what outcome was assigned to "O=S(=O)(C(Cl)(Cl)Cl)C(Cl)(Cl)Cl" ?
Ans: no (0)

* * *

procedure.details: BSK_BT_PBMCCytotoxicity: PBMC Cytotoxicity Assessment in the BioMAP Diversity Plus: BT Assay (AID 2284225);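 also: PBMC viability measured by Alamar Blue dye reduction fluorescence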
assay.setup: primary human B cells with PBMC
The source made the active and inactive calls. The calls were made as follows: active = hit-call score of the fitted dose curve at least 0.9, where 1 is the maximum; inactive = score below 0.9.
// allowed return values: label 1 = active, label 0 = inactive

- compound: "O=S(=O)(C(Cl)(Cl)Cl)C(Cl)(Cl)Cl"
  label.class: "label 1"
- compound: "C#CCOC(=O)/C=C(C)/C=C/CC(C)CCCC(C)C (configuration not stated)"
  label.class: "label 0"
- compound: "CC(C)N(C(=O)CCl)c1ccccc1"
  label.class: "label 1"
- compound: "Nc1ccc(N)cc1"
  label.class: "label 0"
- compound: "CCC(C)(C#N)N=NC(C)(C#N)CC (configuration not stated)"
  label.class: "label 0"

Q: Per the assay record, what outcome was assigned to OC(Cc1ccccc1Cl)(Cn1[nH]cnc1=S)C1(Cl)CC1 (configuration not stated) ?
Ans: label 0

Q: Per the assay record, what outcome was assigned to "O=C(CCl)NCO" ?
Ans: label 0

Values compiled from PubChem BioAssay (EPA / NIEHS).
